# IC50 listing for each entry below
- System: Z138, JeKo-1
- TEST DESCRIPTION: IC50 cell-based assay, suspension cells, Z138, JeKo-1
- ASSAY CONDITIONS: Lymphoma, Mantle cell, read-out: IC50 of Compounds in Suspension Cell Types
- Method: In one embodiment, the IC50s of the compounds provided herein were determined in cell-based assays using adherent cells. In one embodiment, the activity of the compounds provided herein were determined in a cell-based assay using the triple negative breast cancer cell line MDA-MB-468. In one embodiment, the adherent cells used in the cell-based assays may be a cell type selected from Table 1. […] Cells were placed back in the incubator, and the absorbance at 490 nm was read after 2-3 hours. […]

COMPOUND: O=C(Nc1cc(C(F)(F)F)cc(C(F)(F)F)c1)c1cc(-c2ccc(Cl)cc2)oc1C(F)(F)F [Compound 2]
ASSAY RESULT: < 5 µM

COMPOUND: O=C(Nc1cc(C(F)(F)F)cc(C(F)(F)F)c1)c1cc(-c2ccc(Br)cc2)oc1C(F)(F)F [Compound 3]
ASSAY RESULT: < 5 µM

Then there is this compound:
// recorded IC50 for O=C(Nc1cc(F)cc(C(F)(F)F)c1)c1cc(-c2ccc(Br)cc2)oc1C(F)(F)F [Compound 7] : 5 to 10 µM
